- Tested on: HT29 colon
- assay: NCI tumour cell line growth inhibition, 48 h

{"compound": "COc1ccc(C2NC(=O)c3cc4c(cc3N2)OCO4)cc1 (stereo not drawn)", "TGI": "> 100 µM"}
{"compound": "CCOC(=O)C(C(=O)OCC)C1C=CCC2c3ccccc3COCC21 (stereo not drawn)", "TGI": "> 100 µM"}
{"compound": "O=C([CH-]C(=O)C(F)(F)F)c1ccccc1.O=C([CH-]C(=O)C(F)(F)F)c1ccccc1.[O]=[U+2]=[O]", "TGI": "68.2 µM"}

====

- Test system: A498 renal
- assay: NCI tumour cell line growth inhibition, 48 h
Form field: TGI (one value per entry).

{"compound": "O=C(Cc1cc(=O)oc2cc(O)ccc12)N/N=C/c1ccc(N(CCCl)CCCl)cc1", "sign": "=", "TGI / µM": 41.2}
{"compound": "CCCCCCCCCCCCC(CC)CCCCC(=O)O (centres undefined)", "sign": ">", "TGI / µM": 100}
{"compound": "COc1cc2c3c(n(CCCN)c(=O)c2cc1OC)-c1ccc(N(C)C)cc1C3=O", "sign": "=", "TGI / µM": 37.2}
{"compound": "O=C(O)C(CCc1ccccc1)N1C(=O)c2ccccc2C1=O (centres undefined)", "sign": ">", "TGI / µM": 100}

Attribution: PubChem BioAssay (NCI)
